Biological target: Solute carrier organic anion transporter family member 1B1 (Homo sapiens)
Sequence (Q9Y6L6 whole entry): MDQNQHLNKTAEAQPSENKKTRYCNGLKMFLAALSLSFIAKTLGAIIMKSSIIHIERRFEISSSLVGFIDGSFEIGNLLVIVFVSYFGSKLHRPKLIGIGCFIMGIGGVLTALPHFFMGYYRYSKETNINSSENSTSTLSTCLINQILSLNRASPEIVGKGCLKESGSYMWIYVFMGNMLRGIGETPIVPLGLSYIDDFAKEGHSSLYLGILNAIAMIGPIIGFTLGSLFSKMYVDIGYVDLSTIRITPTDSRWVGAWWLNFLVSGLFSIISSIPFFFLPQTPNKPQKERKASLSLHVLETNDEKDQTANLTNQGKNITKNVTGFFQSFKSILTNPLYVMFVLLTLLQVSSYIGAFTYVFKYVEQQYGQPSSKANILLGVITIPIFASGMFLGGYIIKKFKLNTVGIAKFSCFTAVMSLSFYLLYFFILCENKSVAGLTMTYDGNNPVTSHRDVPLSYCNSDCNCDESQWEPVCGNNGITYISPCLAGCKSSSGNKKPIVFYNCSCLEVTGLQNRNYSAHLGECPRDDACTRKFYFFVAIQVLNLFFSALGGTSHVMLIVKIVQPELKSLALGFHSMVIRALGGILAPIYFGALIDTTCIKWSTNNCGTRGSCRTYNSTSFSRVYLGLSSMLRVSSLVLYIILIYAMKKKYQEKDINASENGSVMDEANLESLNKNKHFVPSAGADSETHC
Conditions: chinese hamster, cho, 10 µM
reportedEndpoint: residual activity (%)
Write it as a number; the unit % goes unstated.

Task: Looking for the measured residual activity of CC(C)N(C(=O)SCC(Cl)=C(Cl)Cl)C(C)C [TRIALLATE] , can you help?
Result: 119.9

Task: Please do the same for COc1c2c(c(CC=C(C)C)c3oc(=O)c(-c4ccc(O)cc4)c(O)c13)OC(C)(C)C=C2 [LONCHOCARPIC ACID] as well.
Result: 26.49

Task: Then Cl[C@H]1[C@H](Cl)[C@@H](Cl)[C@@H](Cl)[C@H](Cl)[C@H]1Cl [LINDANE] ?
Result: 79.82

Task: Input CC1(C)S[C@@H]2[C@H](N3C(=O)[C@@H](c4ccccc4)NC3(C)C)C(=O)N2[C@H]1C(=O)[O-].[K+] [HETACILLIN POTASSIUM]
Result: 81.9

###

Target: UniProtKB Q9Y6L6
Settings: chinese hamster, cho, 10 µM
reportedEndpoint: residual activity (%)
Please state the figure in %; there is no need to write the unit.

Task: State the recorded residual activity for this entry: "O[C@H]1[C@H]2c3cc4c(cc3CN3CCC(=C[C@@H]1O)[C@H]23)OCO4"
Result: 60.96

Task: Now consider COc1cc([C@@H]2c3cc4c(cc3[C@@H](O)[C@H]3COC(=O)[C@H]23)OCO4)cc(OC)c1O [4'-DEMETHYLEPIPODOPHYLLOTOXIN] .
Result: 42.52

Task: Try this compound next: "CN(C)c1ccc(C(=C2C=CC(=[N+](C)C)C=C2)c2ccc(N(C)C)cc2)cc1.[Cl-]"
Result: 109.6

Task: What do we get for Cc1c(O)c(O)cc2c1CC=C1[C@@]2(C)CC[C@@]2(C)[C@@H]3C[C@](C)(C(=O)O)CC[C@]3(C)CC[C@]12C [DIHYDROCELASTROL] ?
Result: 70.52

Task: Try NS(=O)(=O)c1cc(C(=O)O)c(NCc2ccco2)cc1Cl [FUROSEMIDE] next.
Result: 86.58

Task: Could you do the same for CC(=O)O[C@]1(C(C)=O)CC[C@H]2[C@@H]3C=C(C)C4=CC(=O)CC[C@]4(C)[C@H]3CC[C@@]21C [MEGESTROL ACETATE] , please?
Result: 50.69

Task: Entry to check: "N=C(NCCC[C@H](N)C(=O)O)N[N+](=O)[O-]"
Result: 113.4

Task: Next entry: CS(=O)(=O)Nc1ccc([N+](=O)[O-])cc1Oc1ccccc1 [NIMESULIDE]
Result: 82.48

###

Molecular target: UniProt:Q9NPD5
Sequence (Q9NPD5 whole entry): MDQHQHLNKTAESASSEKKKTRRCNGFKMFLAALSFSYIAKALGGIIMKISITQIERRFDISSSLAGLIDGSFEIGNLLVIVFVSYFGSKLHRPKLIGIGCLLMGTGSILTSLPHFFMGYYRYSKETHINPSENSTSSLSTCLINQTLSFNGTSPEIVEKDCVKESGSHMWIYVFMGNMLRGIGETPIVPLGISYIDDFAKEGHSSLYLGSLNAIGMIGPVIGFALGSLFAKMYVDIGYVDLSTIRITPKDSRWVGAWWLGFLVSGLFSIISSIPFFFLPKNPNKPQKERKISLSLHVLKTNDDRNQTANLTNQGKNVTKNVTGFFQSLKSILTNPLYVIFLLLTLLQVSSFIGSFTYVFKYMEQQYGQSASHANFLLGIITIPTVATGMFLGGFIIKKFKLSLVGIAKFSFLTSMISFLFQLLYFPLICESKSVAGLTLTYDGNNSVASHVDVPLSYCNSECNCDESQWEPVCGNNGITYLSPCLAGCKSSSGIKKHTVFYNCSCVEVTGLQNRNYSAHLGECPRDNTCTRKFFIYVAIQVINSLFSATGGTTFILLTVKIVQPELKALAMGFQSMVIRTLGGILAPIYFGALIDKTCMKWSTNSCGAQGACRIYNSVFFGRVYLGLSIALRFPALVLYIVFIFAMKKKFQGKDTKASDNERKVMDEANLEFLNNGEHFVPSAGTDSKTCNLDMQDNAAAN
Settings: chinese hamster, cho, 10 µM
I'd appreciate it if you could supply residual activity values for the items below.
// return numeric value only (unit: %, not printed)

Task: Endpoint output: residual activity of O=P(O)(O)O.c1ccc(CN(CC2=NCCN2)c2ccccc2)cc1 [ANTAZOLINE PHOSPHATE] . Value?
Result: 97.11

Task: Then what about the compound CCN(CC)CCNC(=O)c1cc(S(C)(=O)=O)ccc1OC.Cl [TIAPRIDE HYDROCHLORIDE] ?
Result: 94.93

Task: Note, next up: C=CC(C1=CC(=O)C(OC)=CC1=O)c1ccc(OC)cc1 (configuration not stated)
Result: 101.4

Task: Do the same for CNC(C)C(O)c1ccccc1.Cl (configuration not stated) [RACEPHEDRINE HYDROCHLORIDE] please
Result: 103.1

Task: And then Cl.OC1CCCCC1N1CCC(c2ccccc2)CC1 (configuration not stated) [VESAMICOL HYDROCHLORIDE] , what is it?
Result: 101.2

Task: Moving on to "COc1ccc(C(c2ccc(OC)cc2)C(Cl)(Cl)Cl)cc1"
Result: 102.3

Task: How about "CO[C@H]1[C@H](O)[C@@H](O)[C@H](O)[C@H](O)[C@H]1O" ?
Result: 106.9

Task: Another compound: "C/C=C(/C)C(=O)O[C@@H]1Cc2c(ccc3ccc(=O)oc23)OC1(C)C"
Result: 153

Task: Next compound up: "CC(C)(Sc1cc(C(C)(C)C)c(O)c(C(C)(C)C)c1)Sc1cc(C(C)(C)C)c(O)c(C(C)(C)C)c1"
Result: 90.56

Task: Ok, now "COc1cc2c(c(OC)c1OC)-c1ccc(OC)c(=O)cc1[C@@H](NC(C)=O)CC2"
Result: 101

Task: Another: "O=c1cc(-c2ccccc2)oc2cc(O)cc(O)c12"
Result: 129.1

Task: Entry CC1(C)S[C@@H]2[C@H](NC(=O)[C@H](N)c3ccccc3)C(=O)N2[C@H]1C(=O)[O-].[Na+] [AMPICILLIN SODIUM] please
Result: 88.9

Task: Now give it for "CCCCCCCCCCCCCCCCOP(=O)([O-])OCC[N+](C)(C)C" too.
Result: 93.25

Task: Request: O=C(NC(Cc1cc(=O)[nH]c2ccccc12)C(=O)O)c1ccc(Cl)cc1 (configuration not stated) [REBAMIPIDE]
Result: 109.2

Task: Also need CN(C)[C@@H]1C(O)=C(C(N)=O)C(=O)[C@@]2(O)C(O)=C3C(=O)c4c(O)ccc(Cl)c4[C@@H](O)[C@H]3C[C@@H]12.Cl [DEMECLOCYCLINE HYDROCHLORIDE] , thanks.
Result: 90.61

Task: Okay, and "c1ccc2c(c1)sc1ccccc12" ?
Result: 93.83

Task: Now try CCc1cccc(C)c1N(C(=O)CCl)C(C)COC (configuration not stated) .
Result: 101.7

###

Target: Solute carrier organic anion transporter family member 1B1 (Homo sapiens, UniProt Q9Y6L6)
Conditions: chinese hamster, cho, 10 µM
For each record, write down the corresponding residual activity.
Report the figure in % without appending any unit label.

Task: Please give the measured residual activity for this compound: OC(c1cc(C(F)(F)F)nc2c(C(F)(F)F)cccc12)C1CCCCN1 (stereo not drawn)
Result: 161.6

Task: What do you get for "C[C@@H]1C[C@H](O)[C@@]2(O)[C@]13CC(=O)OC[C@]2(C)[C@@](C)(O)C(=O)C3" ?
Result: 95.73

Task: What do you get for CCCCC(=O)O[C@]1(C(=O)CO)[C@@H](C)C[C@H]2[C@@H]3CCC4=CC(=O)C=C[C@]4(C)[C@@]3(F)[C@@H](O)C[C@@]21C [BETAMETHASONE VALERATE] ?
Result: 38.6

Task: Entry to check: CON.Cl [METHOXYAMINE HYDROCHLORIDE]
Result: 118.4

Task: Repeat with "COc1c(C)c2c(c(O)c1C/C=C(\C)CCC(=O)O)C(=O)OC2"
Result: 106.8

Task: Ok, now "O=C(/C=C/c1ccc(O)c(O)c1)OCCc1ccccc1"
Result: 254

Task: Ok, now CCCCCN(CCCCC)C(=O)C(CCC(=O)[O-])NC(=O)c1ccc(Cl)c(Cl)c1.[Na+] (stereo not drawn) [LORGLUMIDE SODIUM]
Result: 16.54

Task: Repeat for the following compound: "Nc1nc2c(ncn2COCCO)c(=O)[nH]1"
Result: 103.4

Task: Do the same for COc1ccc(C(=O)O)c(O)c1OC [2-HYDROXY-3,4-DIMETHOXYBENZOIC ACID] please
Result: 82.39

Task: Another compound to check: "COc1cc(C)c(C(=O)O)c(O)c1"
Result: 82.73

Task: // repeat for "CCCCCCc1ccc(O)cc1O" and report
Result: 115.5

Task: Would you kindly repeat that for CCC(=O)OC1[C@@H]2CC3=C4CC(=O)O[C@@H](c5ccoc5)[C@]4(C)CCC3[C@@](C)(C2=O)[C@@H](CC(=O)OC)C1(C)C (stereo partly drawn) ?
Result: 59.29

Task: CC1(C)O[C@@H]2C[C@H]3[C@@H]4CCC5=CC(=O)CC[C@]5(C)[C@@]4(F)[C@@H](O)C[C@]3(C)[C@]2(C(=O)CCl)O1 [HALCINONIDE] , same question.
Result: 88.26

Task: Query "Cc1cccc(C)c1N=C1NCCCS1" next
Result: 64.31

Task: Try the compound "COc1cc(OC)cc(OC)c1"
Result: 90.48

Task: Param item: "COC(=O)c1cc(OC)c(=O)c2c(OC)c(OC)ccc2c1"
Result: 133.8

Task: And the next one, CC(C)[C@H]1CC[C@H](C(=O)N[C@H](Cc2ccccc2)C(=O)O)CC1 [NATEGLINIDE] ?
Result: 99.81

Task: Can you handle "COc1cc2ccc(=O)oc2cc1O" next?
Result: 87.31
